Answer each item with its documented pIC50.
- Target Entity: HCV polymerase (NS5B570n-Con1) (Hepatitis C virus genotype 1b)
- Construct: a 21 amino acid C-terminal deletion of full-length HCV polymerase; made in house; host or cells: E. coli BL21(DE3) pLysS, plasmid pET17b
- Test: HCV NS5B RNA polymerase activity
- Assay type: biochemical, HCV Con1 strain
- Applied Conditions: NS5B pol inhibition IC50, as in Example 32 (20 nM RNA template)
Worth noting: pIC50 values are minus log10 of concentrations stated in mol/L.

Problem: # lookup: pIC50 of COc1c(/C=C/c2ccc(NS(C)(=O)=O)cc2)cc(-c2c[nH]c(=O)[nH]c2=O)cc1CC(F)(F)F
Solution: 8.85

Problem: Now the same for COCc1cc(NS(C)(=O)=O)ccc1/C=C/c1cc(-c2cnc(OC)[nH]c2=O)cc(C(C)(C)C)c1OC
Solution: 9.05

Problem: Now the same for COc1c(/C=C/c2ccc(NS(C)(=O)=O)cc2)cc(-c2ccn[nH]c2=O)c2c1C(C)(C)CO2
Solution: 9.52

Problem: Now the same for COc1c(CCc2ccc(NC(C)=O)cc2)cc(-c2ncc[nH]c2=O)cc1C(C)(C)C
Solution: 6.15

Problem: Now the same for COc1c(/C=C/c2ccc(NS(C)(=O)=O)cc2C(=O)O)cc(-c2ccn[nH]c2=O)cc1C(C)(C)C
Solution: 9.70

Problem: Now the same for COc1c(-c2ccc3cc(NS(C)(=O)=O)ccc3c2)cc(-c2ncn[nH]c2=O)cc1C(C)(C)C
Solution: 9.15

Problem: Now the same for COc1c(/C=C/c2ccccc2)cc(-c2ccn[nH]c2=O)cc1C(C)(C)C
Solution: 8.15

----------
- Target Entity: HCV polymerase (NS5B570n-Con1) (Hepatitis C virus genotype 1b)
- Construct: a 21 amino acid C-terminal deletion of full-length HCV polymerase; made in house; host or cells: E. coli BL21(DE3) pLysS, plasmid pET17b
- Test: HCV NS5B RNA polymerase activity
- Assay type: biochemical, HCV Con1 strain
- Applied Conditions: NS5B pol inhibition IC50, as in Example 32 (20 nM RNA template)
Test Readout: pIC50
Worth noting: pIC50 values are minus log10 of concentrations stated in mol/L.

Problem: # lookup: pIC50 of COc1c(CCc2ccc(NS(C)(=O)=O)cc2)cc(-c2ncc[nH]c2=O)cc1C(C)(C)C
Solution: 7.82

Problem: Now the same for COc1c(/C=C/c2ccc(NS(C)(=O)=O)cc2)cc(-c2c[nH]c(=O)[nH]c2=O)cc1OC(F)(F)F
Solution: 8.17

Problem: Now the same for CC(C)(C)c1cc(/C=C/c2ccc(NS(C)(=O)=O)cc2)cc(-c2ncc[nH]c2=O)c1
Solution: 8.15

----------
Answer each item with its documented pIC50.
- Target Entity: HCV polymerase (NS5B570n-Con1) (Hepatitis C virus genotype 1b, UniProt Q9WMX2)
- Construct: a 21 amino acid C-terminal deletion of full-length HCV polymerase; made in house; host or cells: E. coli BL21(DE3) pLysS, plasmid pET17b
- Test: HCV NS5B RNA polymerase activity
- Assay type: biochemical, HCV Con1 strain
- Applied Conditions: NS5B pol inhibition IC50, as in Example 32 (20 nM RNA template)
Worth noting: pIC50 values are minus log10 of concentrations stated in mol/L.

Problem: # lookup: pIC50 of Cc1cc(-c2ccn[nH]c2=O)cc(C(C)(C)C)c1 [Compound I-12]
Solution: 6.41

Problem: Now the same for COc1c(/C=C/c2ccc(NS(C)(=O)=O)cc2)cc(-c2c(O)nc(C)[nH]c2=O)cc1C(C)(C)C [Compound I-41]
Solution: 9.40

Problem: Now the same for COc1ncc(-c2cc(/C=C/c3ccc(NS(C)(=O)=O)cc3)c(OC)c(C(C)(C)C)c2)c(=O)[nH]1 [Compound I-34]
Solution: 9.22

Problem: Now the same for COc1c(/C=C/c2ccc(NS(C)(=O)=O)cc2)cc(-c2c[nH]c(=O)[nH]c2=O)cc1C1(C(F)F)CC1 [Compound I-30]
Solution: 9.52

Problem: Now the same for COc1c(/C=C/c2ccc(NS(C)(=O)=O)cn2)cc(-c2c[nH]c(=O)[nH]c2=O)cc1C(C)(C)C [Compound I-29]
Solution: 8.92

Problem: Now the same for CC(C)(C)c1cc(/C=C/c2ccc(NS(C)(=O)=O)cc2)c(O)c(-c2ncc[nH]c2=O)c1 [Compound I-6]
Solution: 6.34

Problem: Now the same for COc1c(/C=C/c2ccc(NS(C)(=O)=O)cc2)cc(-c2ccn[nH]c2=O)cc1C(C)(C)C [Compound I-13]
Solution: 8.40

Problem: Now the same for COc1c(/C=C/c2ccc(NS(C)(=O)=O)cc2F)cc(-c2c[nH]c(=O)[nH]c2=O)cc1C(C)(C)C [Compound I-7]
Solution: 9.52
